Assay: acute LD50 in mice
Conditions: mouse, in vivo, ip
Reported Endpoint: LD50

In [3]: df
Out[3]:
                                item_smiles        result
0  CN(C)CCn1c(=O)c2[nH]c3ccc(Cl)cc3c2c2ccccc21  > 2000 mg/kg

Data provenance is patent US4014883A.
